Taken from PubChem BioAssay AID849.

Test system: Saccharomyces cerevisiae lifespan shortening, growth inhibition
measurementProtocol: yeast lifespan shortening compounds, dose response (AID 849);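 note: yeast growth read as optical density after two days at 30 degrees C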
Activity calls are given as the source filed them. The rule behind the calls is not given here.
The categories you may choose from are active, inactive

CC(C)(C)c1ccc(-c2nc(-c3ccncc3)no2)cc1    active
O=C(O)CSc1nc(-c2ccc(Cl)cc2)nc2c1oc1ccccc12    active
Cc1cc(OCc2ccc(C(=O)NN=C3CCCC3)cc2)ccc1Cl    active
Oc1c(CN2CCN(c3ccccn3)CC2)cc(Cl)c2cccnc12    active
Oc1ccc(/C=C/c2nc(-c3ccccc3O)n(-c3ccccc3)n2)cc1    inactive
C=CCn1cnc2c(c1=O)c1nc3ccccc3nc1n2/N=C/c1cc(OC)c(OC)c(OC)c1    active

Problem: Which outcome was assigned to O=C1OCC(CO)(CO)N=C1NNc1ccc(Cl)c(Cl)c1 in this test?
Result: active

Problem: Which outcome was assigned to CCCCOc1ccc(C(=O)NNC(=S)NC(=O)CC)cc1 in this test?
Result: active

Problem: Which outcome was assigned to O=C1CC(N2CCN(c3nc4ccccc4s3)CC2)C(=O)N1Cc1cccs1 (stereo not drawn) in this test?
Result: inactive

Problem: Which outcome was assigned to C/C(=N\Nc1ccc([N+](=O)[O-])cc1)c1ccc(N)cc1 in this test?
Result: active

Problem: Which outcome was assigned to Cc1sc2ncnc(N/N=C/c3ccccc3O)c2c1C in this test?
Result: active

---

System: Saccharomyces cerevisiae lifespan shortening, growth inhibition
measurementProtocol: yeast lifespan shortening compounds, dose response (AID 849);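 note: yeast growth read as optical density after two days at 30 degrees C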
Activity calls are given as the source filed them. No rule for the calls is given here.
The categories you may choose from are active, inactive

Worked examples, 4 compounds total:
O=C(C1=C(O)/C(=C/c2ccc(O)cc2)CCC1)C(F)(F)F    inactive
Fc1ccc2nc3[nH]c4ccccc4c3nc2c1    active
Cc1ccccc1C(=O)O/N=C/c1c(N2CCOCC2)n(C)c2ccccc12    active
CN1CCN(Cc2cc(COCc3ccccc3)c3cccnc3c2O)CC1    active

Problem: Which outcome was assigned to O=C(COc1ccccc1)NNC(=S)NC(=O)c1ccc(Cl)cc1Cl in this test?
Result: active

Problem: Which outcome was assigned to Cc1[nH]n(-c2ccccc2)c(=O)c1/C=N/Nc1nncc(-c2ccccc2)n1 in this test?
Result: active

Problem: Which outcome was assigned to CC1(C)C[C@H]2C=C(C=O)[C@]3(C=O)C[C@]3(C)[C@H]2C1 in this test?
Result: active

Problem: Which outcome was assigned to N#Cc1ccccc1NC(=O)c1ccc2c(Cl)c3c(nc2c1)CCCC3 in this test?
Result: inactive

Problem: Which outcome was assigned to O=c1[nH]c2ccccc2c2nc3ccccn3c12 in this test?
Result: active

---

Test system: Saccharomyces cerevisiae lifespan shortening, growth inhibition
measurementProtocol: yeast lifespan shortening compounds, dose response (AID 849);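 note: yeast growth read as optical density after two days at 30 degrees C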
Active and inactive are the calls of the source. No rule for the calls is given here.
The categories you may choose from are Yes for active, No for inactive

Worked examples, 8 compounds total:
O=C(N/N=C/c1cc2c3c(c1O)CCCN3CCC2)c1ccccc1O    Yes
COc1ccc(-c2cc(=O)n(-c3nc4ccccc4[nH]3)[nH]2)cc1    Yes
c1ccc2c(c1)oc1c(N3CCOCC3)ncnc12    Yes
NNC(=O)c1cccc(COc2ccc(Br)cc2)c1    Yes
CC(Oc1ccc2ccccc2c1)C(=O)NNC(=S)NC(=O)c1ccco1 (centres undefined)    Yes
O=C1C(=O)c2c(C(=O)c3ccccc3)coc2-c2ccccc21    Yes
O=c1[nH][nH]cc1C=Nc1ccccc1O    No
CCc1ccc(C2NC(=S)NC3=C2C(=O)N(c2ccccc2OC)C(c2ccc(CC)cc2)N3)cc1 (centres undefined)    No

Problem: Which outcome was assigned to CCOC(=O)/C(=N\Nc1cccc(C(F)(F)F)c1)N(CCOC)CCOC in this test?
Result: No

Problem: Which outcome was assigned to CCn1c2ccc(C)cc2c2nc3cc(C(=O)O)ccc3nc21 in this test?
Result: Yes

Problem: Which outcome was assigned to COc1ccc2c(c1)[nH]c1c(Cl)ncnc12 in this test?
Result: Yes

Problem: Which outcome was assigned to Cc1cccnc1Nc1nc(-c2ccccn2)cs1 in this test?
Result: Yes

Problem: Which outcome was assigned to COc1ccc(-c2nnc3c4ccccc4c(C)nn23)cc1 in this test?
Result: No

Problem: Which outcome was assigned to O=C(CN1CCN(c2ncc(C(F)(F)F)cc2Cl)CC1)NCCNc1ncc(C(F)(F)F)cc1Cl in this test?
Result: Yes

Problem: Which outcome was assigned to CCn1ncc(C2=NOC(C(=O)Nc3c(C)n(C)n(-c4ccccc4)c3=O)C2)c1C (centres undefined) in this test?
Result: No

---

Tested on: Saccharomyces cerevisiae lifespan shortening, growth inhibition
measurementProtocol: yeast lifespan shortening compounds, dose response (AID 849);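 note: yeast growth read as optical density after two days at 30 degrees C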
The source made the active and inactive calls. No rule for the calls is given here.
The categories you may choose from are active, inactive

Cc1ccc2nc3c(nc2c1)-c1ccccc1C3=O    active

Problem: Which outcome was assigned to Clc1cc2nc3ccccn3c2cc1Cl in this test?
Result: active

Problem: Which outcome was assigned to O=C(O)c1ccccc1Nc1ccc([N+](=O)[O-])cc1 in this test?
Result: active

Problem: Which outcome was assigned to Cc1cc(O)c(/C=N/Nc2cccc(Cl)c2)c(=O)o1 in this test?
Result: active

Problem: Which outcome was assigned to CCOC(=O)N1CCN(C(=O)Cn2nc(C)c3sc4ccccc4c3c2=O)CC1 in this test?
Result: inactive

Problem: Which outcome was assigned to Cc1ccc(-c2nn(C(C)(C)C)c3ncnc(N)c23)cc1 in this test?
Result: active

---

Test system: Saccharomyces cerevisiae lifespan shortening, growth inhibition
measurementProtocol: yeast lifespan shortening compounds, dose response (AID 849);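 note: yeast growth read as optical density after two days at 30 degrees C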
Calls of active or inactive are those of the source. No rule for the calls is given here.
// reported IC50 per item

Worked cases, answers included:
CCc1oc2ccccc2c1C(=O)c1cc(Br)c(O)c(Br)c1    49.2 µM
CCCOC(=O)c1ccc(Oc2cn[nH]c2-c2ccc(OCC)cc2O)cc1    > 100 µM (inactive)
Cc1nn2c3ccccc3nc2c2ccccc12    41.6 µM
O=C1C=C(c2ccc(Cl)cc2)C(=O)N1Nc1ccccc1    4.66 µM
OC(CNCCC1C=Nc2ccccc21)Cn1c2ccc(Cl)cc2c2cc(Cl)ccc21 (stereo not drawn)    20 µM
O=C(Nc1nc(-c2ccccn2)cs1)c1ncc(Cl)c(Cl)c1Cl    > 100 µM (inactive)

Problem: Identify measured IC50 associated with Cc1ccc(-c2nc(N)sc2-c2ccccc2)cc1C
Result: > 100 µM (inactive)

Problem: Identify measured IC50 associated with O=C(O)c1ccc2c3c(ncnc13)-c1ccccc1C2=O
Result: 1.5 µM

Problem: Identify measured IC50 associated with CCCCCCCCC/C(=N\O)c1ccccn1
Result: 4.51 µM

Problem: Identify measured IC50 associated with c1ccc2c(c1)nnn1c3ccccc3nc21
Result: > 100 µM (inactive)

Problem: Identify measured IC50 associated with O=[N+]([O-])c1cc(CN2CCCC2)c2cccnc2c1O
Result: > 100 µM (inactive)

---

System: Saccharomyces cerevisiae lifespan shortening, growth inhibition
measurementProtocol: yeast lifespan shortening compounds, dose response (AID 849);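 note: yeast growth read as optical density after two days at 30 degrees C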
Activity calls are given as the source filed them. How the calls were made is not given here.
The categories you may choose from are active, inactive

CN(c1ccccc1)c1ccc(/C=C/[N+](=O)[O-])cc1    active
O=c1c2ccccc2nc2sc3ccccc3n12    active
Cc1ccc(C(=O)OCn2ncc(Cl)c(Cl)c2=O)cc1    active

Problem: Which outcome was assigned to Cc1ccc(-c2nn3c(C)nnc3s2)cc1NC(=O)c1ccc(OC(C)C)cc1 in this test?
Result: inactive

Problem: Which outcome was assigned to CCOCCCNC(=O)c1ccc(Br)cc1 in this test?
Result: inactive

---

System: Saccharomyces cerevisiae lifespan shortening, growth inhibition
measurementProtocol: yeast lifespan shortening compounds, dose response (AID 849);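 note: yeast growth read as optical density after two days at 30 degrees C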
Activity calls are given as the source filed them. The rule behind the calls is not given here.
The categories you may choose from are class 1 = active, class 0 = inactive

Problem: Which outcome was assigned to Nc1ccc(C(=O)OCC(=O)Nc2ccc3c(c2)OCO3)cc1[N+](=O)[O-] in this test?
Result: class 0

Problem: Which outcome was assigned to Oc1c(Br)cc(Br)cc1/C=N/c1nc2c(s1)CCCC2 in this test?
Result: class 1

Problem: Which outcome was assigned to Cc1ccc(-c2cc(-c3ccccc3Cl)[nH]n2)c(O)c1 in this test?
Result: class 1

Problem: Which outcome was assigned to CC(Sc1cccc[n+]1[O-])C(=O)Nc1cccc(S(=O)(=O)N2CCOCC2)c1 (centres undefined) in this test?
Result: class 1

---

System: Saccharomyces cerevisiae lifespan shortening, growth inhibition
measurementProtocol: yeast lifespan shortening compounds, dose response (AID 849);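 note: yeast growth read as optical density after two days at 30 degrees C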
Calls of active or inactive are those of the source. How the calls were made is not given here.
valueKind: IC50

Worked cases, answers included:
CCN(CC)N=Nc1[nH]nc2nc(C)cc(C)c12    7.74 µM
O=C1OCC(CO)(CO)N=C1NNc1cc(Cl)ccc1Cl    16.2 µM
Cc1ccc(/C(N)=N/OC(=O)c2ccc(Cl)cc2Cl)cc1    18.3 µM
Cc1nnc(NC(=O)CSc2nnc(Cc3cccn3C)n2-c2ccccc2)s1    > 100 µM (inactive)
CCOC(=O)C(=NC(C)CC)NNc1ccc(Br)cc1 (centres undefined)    8.41 µM
Nc1ccc(O)c2c1C(=O)c1ccccc1C2=O    28.1 µM
O=C1CCCC/C1=N\Nc1ccc(OCc2ccccc2)cc1    13.3 µM
Cc1c(Cl)cccc1N=Cc1ccc([N+](=O)[O-])s1    > 100 µM (inactive)
O=C(Nc1nc(-c2ccccn2)cs1)C1COc2ccccc2O1 (centres undefined)    12.7 µM
CC(=O)Oc1ccc(N2C(=O)C3C(C2=O)C2(C)C=CC3(C)O2)cc1 (centres undefined)    > 100 µM (inactive)

Problem: Identify measured IC50 associated with CCc1nc2ccccc2c(=O)n1NC(=O)c1c(O)c2cccc3c2n(c1=O)CCC3
Result: > 100 µM (inactive)

Problem: Identify measured IC50 associated with COC(=O)Cn1c2ccc(C)cc2c2nc(C)sc21
Result: > 100 µM (inactive)
